// reported melting point for each item listed
Answer in °C, number only, no unit symbol.

See these solved cases before continuing.
CC(C)(Oc1ccccc1)C(=O)O :: 98.5
CCCNC(C)C(=O)Nc1ccccc1C (stereo unspecified) :: 37.5
O=C(O)C=Cc1ccc(F)cc1Cl :: 247
O=C(O)CNC(=O)c1ccc([N+](=O)[O-])cc1 :: 130
COc1cc(C(c2ccc(C)o2)c2ccc(C)o2)c(O)cc1[N+](=O)[O-] :: 104
C=C[Si](C)(C)O[Si](C)(C)C=C :: -99.7
CC1CCC(C(C)C)C(OC(=O)C(C)O)C1 (single isomer, unassigned; (-)) :: 40

get_value(item= O=C(Cc1cc(Cl)c([N+](=O)[O-])cc1[N+](=O)[O-])c1ccccc1 , readout=melting point) returns 133

----------
// reported melting point for each item listed
Answer in °C, number only, no unit symbol.

O=c1ccoc2ccc(Br)cc12 :: 141
CCOC(=O)C(C)O (stereo not drawn) :: -26
CCC1CCc2ccccc2C1 (stereo not drawn) :: -42.8
CC(=O)NC(N)=S :: 165

get_value(item= CCC(=O)C1CCCCC1C(C)(C)C(=O)O (stereo not drawn) , readout=melting point) returns 115

get_value(item= CC(C)(C)c1ccncc1 , readout=melting point) returns -41

get_value(item= N#Cc1cc2cc3c4c(c2oc1=O)CCCN4CCC3 , readout=melting point) returns 250

get_value(item= COc1ccc(C(=O)c2coc(S(N)(=O)=O)c2)cc1 , readout=melting point) returns 181

get_value(item= CCCc1ccccn1 , readout=melting point) returns 2

get_value(item= N#CC(CCc1ccc(Cl)cc1)(Cn1cncn1)c1ccccc1 (stereo not drawn) , readout=melting point) returns 126

----------
recorded endpoint: melting point

Cc1nc2ccc(C(=O)O)cc2nc1C :: 230 °C
C=CCOc1ccc(NC(C)=O)cc1 :: 90 to 92 °C
c1ccc(C2Nn3c(nnc3-c3cccnc3)S2)cc1 (stereo unspecified) :: 220 °C
CCCCCCCCCCCCCCCCCCN(C)C :: 22.9 °C

get_value(item= O=C(O)C(F)(F)C(F)(F)C(F)(F)C(F)(F)C(F)(C(F)(F)F)C(F)(F)F , readout=melting point) returns 13 °C

----------
// reported melting point for each item listed

See these solved cases before continuing.
O=C(NNc1ccccc1)C1CCCCC1 :: 164 °C
Cc1cc([N+]([O-])=Nc2ccc(N=Nc3ccccc3)cc2)ccc1N=Nc1ccc(N=Nc2ccccc2)cc1 :: 193 °C
O=S(=O)(Cl)c1cc2ccccc2o1 :: 79 to 81 °C

get_value(item= c1ccc2c(c1)nnn2C1CCCCC1 , readout=melting point) returns 104 °C

get_value(item= C1=CCCC=C1 , readout=melting point) returns -89 °C

get_value(item= c1ncncn1 , readout=melting point) returns 86 °C

get_value(item= O=C(Oc1c(F)c(F)c(F)c(F)c1F)c1csc(-c2cccnc2)n1 , readout=melting point) returns 136 to 137 °C

get_value(item= COC(=O)c1csc2c(C(F)(F)F)cc(Cl)nc12 , readout=melting point) returns 110 to 111 °C

----------
// reported melting point for each item listed
Answer in °C, number only, no unit symbol.

See these solved cases before continuing.
Cc1ccc(OP(=O)(Oc2ccc(C)cc2)Oc2ccc(C)cc2)cc1 :: 77.5
COc1ccccc1-c1ccc(C=C2C(=O)NC(=S)NC2=O)o1 :: 235
CN1c2ccccc2C(C)(C)C12C=Cc1cc([N+](=O)[O-])ccc1O2 (stereo not given) :: 180

get_value(item= NC(=S)c1cccs1 , readout=melting point) returns 108

get_value(item= COC(=O)C1=C(C)NC(=O)NC1c1cccc(OC)c1O (stereo not given) , readout=melting point) returns 208

get_value(item= COC1N(c2ccccc2)N=C(c2ccccc2)N1c1ccccc1 (stereo not given) , readout=melting point) returns 80

get_value(item= C=C[Si](Cl)(Cl)Cl , readout=melting point) returns -95

get_value(item= Cc1cc(-c2ccc(N=C=O)c(C)c2)ccc1N=C=O , readout=melting point) returns 71

get_value(item= CN(C)C1CSSC1 , readout=melting point) returns 177

get_value(item= CC(C)(O)Cc1ccccc1 , readout=melting point) returns 24

get_value(item= O=C(OC1CCCCC1)C(=O)OC1CCCCC1 , readout=melting point) returns 43.5

get_value(item= O=C(NCC(c1ccccc1)c1ccccc1)c1ccccc1 , readout=melting point) returns 123

get_value(item= O=C(O)C1=CCCC1 , readout=melting point) returns 119

----------
Just a reminder that ties go to false (0): only melting point strictly below 100 °C counts as true (1).

Illustrative cases are given below, each with its answer.
Nc1ncnc(Nc2ccccc2)n1 :: false (0)
CCCCNCC :: true (1)
C=COC(=O)C(CC)CCCC (stereo not drawn) :: true (1)
O=C(c1ccccc1)N1CC(c2ccccc2)C=C1c1ccccc1 (stereo not drawn) :: false (0)
BrCC(CBr)CBr :: true (1)
CCC(C)CCC(C)(O)CC (stereo not drawn) :: true (1)

IN: Would you kindly verify if melting point of Nc1ccc(-c2ccc(N)cc2)cc1 is strictly less than 100 °C?
OUT: false (0)

IN: Would you kindly verify if melting point of N=C(N)N1CCc2ccccc2C1 is strictly less than 100 °C?
OUT: false (0)

----------
recorded endpoint: melting point (°C)
Answer in °C, number only, no unit symbol.

See these solved cases before continuing.
C(=NN=Cc1ccccc1)c1ccccc1 :: 93
CCCCCCCCCC(=O)CCC :: 19
N#Cc1ccc2ccccc2n1 :: 95
O=C(Nc1ccc(C#Cc2ccc(NC(=O)c3ccccc3)cc2)cc1)c1ccccc1 :: 332
COC(=O)C(C)Oc1ccc(Oc2ncc(C(F)(F)F)cc2Cl)cc1 (configuration not stated) :: 56
Cc1ccncc1/C=C/C(=O)O :: 137
N#CCCP(CCC#N)CCC#N :: 98
Clc1cc2oc3cc(Cl)c(Cl)c(Cl)c3c2cc1Cl :: 225

get_value(item= O=C(O)c1ccc(C(F)(F)F)cc1F , readout=melting point) returns 168

get_value(item= O=C(O)CCCCc1ccc(O)cc1 , readout=melting point) returns 118

----------
recorded endpoint: melting point

O=C(Oc1ccccc1)c1ccc(O)cc1 :: 176 to 178 °C
CC(C)(C)c1csc(-c2ccc(C=O)cc2)n1 :: 106 to 107 °C
CCOC(=O)c1cc2c(oc1=O)-c1ccc(OC)cc1CC2 :: 141 to 142 °C

get_value(item= CCCCC(O)(Cn1cncn1)c1ccc(Cl)cc1Cl (stereo not drawn) , readout=melting point) returns 111 °C

get_value(item= CCOC(=O)c1c(N=C=S)sc2c1CCCC2 , readout=melting point) returns 45 to 46 °C

get_value(item= NN1CCN(CCO)CC1 , readout=melting point) returns 102 to 107 °C

----------
// reported melting point for each item listed
Answer in °C, number only, no unit symbol.

See these solved cases before continuing.
OCc1cc(C(O)CNCCCCCCOCCCCc2ccccc2)ccc1O (stereo unspecified) :: 75.8
CC(C)c1cccc(C(C)C)c1O :: 18

Kindly review the next molecule as well.
get_value(item= Cc1ccc(C(=O)c2csc(S(N)(=O)=O)c2)cc1 , readout=melting point) returns 176

----------
// reported melting point for each item listed

See these solved cases before continuing.
Cc1ccc(Sc2ccc(C=CC(=O)O)cc2[N+](=O)[O-])cc1 :: 217 to 218 °C
CC1Sc2ccc(Cl)cc2-c2nc(N)ncc21 (stereo unspecified) :: 181 to 183 °C
CCN(CC)CCOC(=O)C(O)(c1ccccc1)c1ccccc1 :: 51 °C
Nc1nc(F)cc(C(F)(F)F)c1F :: 67 °C
O=C(/C=C/c1ccc(Cl)cc1Cl)c1ccccc1 :: 72.3 °C

Kindly review the next compound as well.
get_value(item= ON=Cc1ccco1 , readout=melting point) returns 78 to 80 °C

----------
Just a reminder that ties go to NO: only melting point strictly below 100 °C counts as YES.

CCN(CC)CC(=O)OCC(=O)C1(O)CCC2C3CCC4=CC(=O)C=CC4(C)C3C(O)CC21C (stereo unspecified) :: NO
c1cocn1 :: YES
CC1(C)C(C=C(Cl)C(F)(F)F)C1C(=O)O (stereo unspecified) :: NO

IN: Would you kindly verify if melting point of CCN(CC)C(C)O (stereo unspecified) is strictly less than 100 °C?
OUT: YES

IN: Would you kindly verify if melting point of CCCCCCCCCCCCCCCCCCCCCC(=O)OCC is strictly less than 100 °C?
OUT: YES

IN: Would you kindly verify if melting point of CCCCCCC(=O)CCCCCC is strictly less than 100 °C?
OUT: YES

IN: Would you kindly verify if melting point of O=C1NC(=S)NC(=O)C1=NNc1ccccc1[N+](=O)[O-] is strictly less than 100 °C?
OUT: NO

IN: Would you kindly verify if melting point of CCNc1cccc(O)c1 is strictly less than 100 °C?
OUT: YES

IN: Would you kindly verify if melting point of Fc1cc(Br)c(Br)cc1F is strictly less than 100 °C?
OUT: YES

IN: Would you kindly verify if melting point of COc1nccnc1N(C(C)=O)S(=O)(=O)c1ccc(N)cc1 is strictly less than 100 °C?
OUT: NO

IN: Would you kindly verify if melting point of O=C(c1ccccc1)c1ccc(C(=O)c2ccccc2)cc1 is strictly less than 100 °C?
OUT: NO
